# tgt: UniProt:P17948
# Sequence (P17948 27-1338): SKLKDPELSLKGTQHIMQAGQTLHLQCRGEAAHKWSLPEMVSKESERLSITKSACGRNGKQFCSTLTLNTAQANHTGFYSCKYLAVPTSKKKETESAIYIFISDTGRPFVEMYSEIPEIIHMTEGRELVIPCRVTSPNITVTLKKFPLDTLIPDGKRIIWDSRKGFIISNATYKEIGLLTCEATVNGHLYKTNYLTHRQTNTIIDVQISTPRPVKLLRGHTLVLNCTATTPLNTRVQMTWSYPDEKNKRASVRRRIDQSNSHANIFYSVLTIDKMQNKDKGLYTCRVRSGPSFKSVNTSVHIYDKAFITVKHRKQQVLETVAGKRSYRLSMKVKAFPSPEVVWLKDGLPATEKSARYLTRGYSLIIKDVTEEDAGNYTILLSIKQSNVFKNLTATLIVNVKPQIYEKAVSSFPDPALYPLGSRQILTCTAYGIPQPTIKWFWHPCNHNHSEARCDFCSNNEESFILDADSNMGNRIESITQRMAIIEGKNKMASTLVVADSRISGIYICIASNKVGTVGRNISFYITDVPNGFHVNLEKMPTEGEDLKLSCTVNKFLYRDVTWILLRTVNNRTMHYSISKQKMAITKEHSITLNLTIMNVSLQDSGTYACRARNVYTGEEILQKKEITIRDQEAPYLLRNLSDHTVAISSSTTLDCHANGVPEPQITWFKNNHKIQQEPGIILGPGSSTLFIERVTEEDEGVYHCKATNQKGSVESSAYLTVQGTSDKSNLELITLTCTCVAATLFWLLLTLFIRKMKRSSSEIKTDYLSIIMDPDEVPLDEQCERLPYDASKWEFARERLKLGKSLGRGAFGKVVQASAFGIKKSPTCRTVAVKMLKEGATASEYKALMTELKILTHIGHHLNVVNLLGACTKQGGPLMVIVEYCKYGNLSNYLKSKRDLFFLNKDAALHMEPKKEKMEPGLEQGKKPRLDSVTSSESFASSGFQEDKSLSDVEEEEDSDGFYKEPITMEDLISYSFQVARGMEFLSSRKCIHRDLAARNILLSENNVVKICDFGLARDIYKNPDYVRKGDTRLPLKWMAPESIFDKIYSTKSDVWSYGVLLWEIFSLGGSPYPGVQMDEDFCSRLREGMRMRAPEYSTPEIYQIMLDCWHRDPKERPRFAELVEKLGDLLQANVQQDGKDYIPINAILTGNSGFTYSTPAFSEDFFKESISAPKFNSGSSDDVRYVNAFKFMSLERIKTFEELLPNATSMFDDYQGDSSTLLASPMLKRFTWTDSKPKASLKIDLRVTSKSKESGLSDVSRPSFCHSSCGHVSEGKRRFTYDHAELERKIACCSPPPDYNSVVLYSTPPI
observationType: IC50

compound	observationType	observedMeasurement
CC(C)NC(=O)[C@H]1CC[C@@H](n2/c(=N/C(=O)c3cc(F)cc(F)c3)[nH]c3ccc(CN4CCC(C(C)(C)O)CC4)cc32)CC1 [I-b]	IC50	> 1000 nM

* * *

IC50: recorded values
# tgt: cytoplasmic domain (amino acids 1058-1620) of wild-type human ALK (Homo sapiens)
# Construct: cytoplasmic domain (amino acids 1058-1620) of wild-type human ALK; GST (N); made in house; host or cells: SF9 cells
# Sequence (Q9UM73 1058-1620): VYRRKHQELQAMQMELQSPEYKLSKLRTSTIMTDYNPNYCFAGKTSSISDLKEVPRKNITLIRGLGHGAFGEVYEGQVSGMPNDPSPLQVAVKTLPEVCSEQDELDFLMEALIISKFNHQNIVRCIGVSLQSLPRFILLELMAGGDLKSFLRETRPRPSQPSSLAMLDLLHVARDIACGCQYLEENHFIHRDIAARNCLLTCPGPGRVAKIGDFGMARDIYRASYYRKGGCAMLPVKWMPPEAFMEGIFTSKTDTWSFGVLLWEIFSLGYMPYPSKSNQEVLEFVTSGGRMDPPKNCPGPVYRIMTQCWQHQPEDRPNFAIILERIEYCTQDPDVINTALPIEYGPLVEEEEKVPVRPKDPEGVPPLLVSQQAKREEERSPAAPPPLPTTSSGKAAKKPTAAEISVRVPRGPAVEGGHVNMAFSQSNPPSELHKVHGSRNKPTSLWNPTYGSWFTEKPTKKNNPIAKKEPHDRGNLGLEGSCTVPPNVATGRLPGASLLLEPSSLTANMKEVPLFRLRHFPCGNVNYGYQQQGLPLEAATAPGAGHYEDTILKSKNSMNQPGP
# experiment: ALK inhibition in enzyme assay (Lance TR-FRET)
# Assay type: biochemical
observationType: IC50

compound	observationType	observedMeasurement
CC(C)N(C)C(=O)[C@H]1CC[C@@H](n2/c(=N/C(=O)c3ccc(F)cc3)[nH]c3cnc(CN4CCCCC4)cc32)CC1	IC50	< 50 nM
CC(C)NC(=O)[C@H]1CC[C@@H](n2/c(=N/C(=O)c3cccc(F)c3)[nH]c3cnc(OCCN4CCC(C(C)(C)O)CC4)cc32)CC1	IC50	< 50 nM
COC(=O)[C@H]1CC[C@@H](n2/c(=N/C(=O)c3ccc(F)cc3)[nH]c3cnc(CN4CCOCC4)cc32)CC1	IC50	< 50 nM
CC(C)C(=O)N[C@H]1CC[C@@H](n2/c(=N/C(=O)c3ccc(F)cc3)[nH]c3cnc(CN4CCC(C(C)(C)O)CC4)cc32)CC1	IC50	50 to 100 nM
CC(C)NC(=O)[C@H]1CC[C@@H](n2/c(=N/C(=O)c3ccc(F)cc3)[nH]c3ccc(CN4CCN(S(=O)(=O)O)CC4)cc32)CC1	IC50	< 50 nM
CC(C)NC(=O)[C@H]1CC[C@@H](n2/c(=N/C(=O)c3ccc(F)c(C#N)c3)[nH]c3ccc(CN4CCC(C(C)(C)O)CC4)cc32)CC1	IC50	< 50 nM
CCOC(=O)[C@H]1CC[C@@H](n2/c(=N/C(=O)c3cccc(F)c3)[nH]c3cnc(OCCN4CCC(C(C)(C)O)CC4)cc32)CC1	IC50	1000 to 5000 nM
C=CCNS(=O)(=O)c1cccc(C(=O)/N=c2\[nH]c3cnc(OCCN4CCC(C(C)(C)O)CC4)cc3n2[C@H]2CC[C@H](C(=O)NC(C)C)CC2)c1	IC50	100 to 1000 nM
CC(C)NC(=O)[C@H]1CC[C@@H](n2/c(=N/C(=O)c3ccc(F)cc3)[nH]c3ccc(CN4CCN(C(N)=O)CC4)cc32)CC1	IC50	< 50 nM
CC(C)NC(=O)[C@H]1CC[C@@H](n2/c(=N/Cc3ccc4ccsc4c3)[nH]c3cnc(OCCN4CCCCC4)cc32)CC1	IC50	50 to 100 nM
O=C(/N=c1\[nH]c2cnc(OCCN3CCCCC3)cc2n1[C@H]1CC[C@@H](C(=O)N2CCNCC2)CC1)c1ccc(F)cc1	IC50	100 to 1000 nM
CC(C)NC(=O)[C@H]1CC[C@@H](N2c3cc(O)ccc3NC2NC(=O)c2ccc(F)cc2)CC1 (stereo partly shown)	IC50	< 50 nM
CNC(=O)[C@]1(O)CC[C@@H](n2/c(=N/C(=O)c3ccc(F)cc3)[nH]c3cnc(OCCN4CCCCC4)cc32)CC1	IC50	1000 to 5000 nM
CC(=O)[C@H]1CC[C@@H](n2/c(=N/C(=O)c3cccc(F)c3)[nH]c3ccc(CO)cc32)CC1	IC50	1000 to 5000 nM
CNC(=O)[C@]1(O)CC[C@H](n2/c(=N/C(=O)c3ccc(F)cc3)[nH]c3cnc(OCCN4CCCCC4)cc32)CC1	IC50	100 to 1000 nM
CC(=O)N[C@H]1CC[C@H](n2/c(=N/C(=O)c3cccc(F)c3)[nH]c3ccc(CN4CCC(C(C)(C)O)CC4)cc32)CC1	IC50	50 to 100 nM
